MEASUREMENT TARGET: HLA-A*02:06
PROTOCOL: IEDB peptide-MHC binding, purified MHC/competitive/fluorescence; filed as Kd, often an IC50 or EC50 that approximates it; bounds were set here for any values at or beyond the usual limits of such assays
MEASUREMENT PARAMETERS: source organism: Vaccinia virus Tian Tan
REPORTED METRIC: Kd
Number first, unit second.

sequence KVFFGPIYY , Kd observed: 1.8 µM

* * *

MEASUREMENT TARGET: HLA-B*57:01
PROTOCOL: IEDB peptide-MHC binding, purified MHC/direct/fluorescence; filed as Kd, often an IC50 or EC50 that approximates it; bounds were set here for any values at or beyond the usual limits of such assays
MEASUREMENT PARAMETERS: source organism: Aracatuba virus
pKd: −log10 of the molar value.
REPORTED METRIC: pKd

Form field pKd, entry LLLLISLVY : ≤ 4.70

* * *

MEASUREMENT TARGET: HLA-A*02:06
PROTOCOL: IEDB peptide-MHC binding, purified MHC/competitive/radioactivity; filed as Kd, often an IC50 or EC50 that approximates it; bounds were set here for any values at or beyond the usual limits of such assays
MEASUREMENT PARAMETERS: source organism: Lymphocytic choriomeningitis virus (strain Armstrong)
REPORTED METRIC: Kd (nM)
# unit: nM | format: bare number

Record FSLGAAVKA , field Kd: 327

* * *

MEASUREMENT TARGET: HLA-B*46:01
PROTOCOL: IEDB peptide-MHC binding, purified MHC/direct/fluorescence; filed as Kd, often an IC50 or EC50 that approximates it; bounds were set here for any values at or beyond the usual limits of such assays
MEASUREMENT PARAMETERS: source organism: Influenza A virus (A/camel/Mongolia/1982(H1N1))
pKd: −log10 of the molar value.
REPORTED METRIC: pKd

For record HIPEVCLKW the listed pKd is ≤ 4.70

* * *

MEASUREMENT TARGET: HLA-B*07:02
PROTOCOL: IEDB peptide-MHC binding, purified MHC/direct/fluorescence; filed as Kd, often an IC50 or EC50 that approximates it; bounds were set here for any values at or beyond the usual limits of such assays
MEASUREMENT PARAMETERS: source organism: Escherichia coli O157:H7
REPORTED METRIC: pKd
# log scale: pKd equals minus log10 of the concentration in mol/L

So, NLPSKPVWL ? Its pKd was 5.15

* * *

pKd values by entry
MEASUREMENT TARGET: HLA-A*11:01
PROTOCOL: IEDB peptide-MHC binding, purified MHC/direct/fluorescence; filed as Kd, often an IC50 or EC50 that approximates it; bounds were set here for any values at or beyond the usual limits of such assays
MEASUREMENT PARAMETERS: source organism: Vibrio cholerae
pKd: −log10 of the molar value.

# RECORD SEQUENCE, RESULT
data = [
    ("FLHPKHWGT", "≤ 4.70"),
]

Moving on to the next sequence.
Looking up REVFDYLLP , I see its pKd listed as ≤ 4.70

* * *

MEASUREMENT TARGET: HLA-B*08:02
PROTOCOL: IEDB peptide-MHC binding, purified MHC/direct/fluorescence; filed as Kd, often an IC50 or EC50 that approximates it; bounds were set here for any values at or beyond the usual limits of such assays
MEASUREMENT PARAMETERS: source organism: Vibrio cholerae V52
pKd: −log10 of the molar value.
REPORTED METRIC: pKd

REVFDYLLP yielded pKd of ≤ 4.70

* * *

MEASUREMENT TARGET: HLA-B*27:05
PROTOCOL: IEDB peptide-MHC binding, purified MHC/direct/fluorescence; filed as Kd, often an IC50 or EC50 that approximates it; bounds were set here for any values at or beyond the usual limits of such assays
MEASUREMENT PARAMETERS: source organism: Escherichia coli
REPORTED METRIC: Kd (nM)
Only the number, expressed in nM, is required.

Kd in this record for ALMRWRHPR : 237

* * *

MEASUREMENT TARGET: HLA-B*15:17
PROTOCOL: IEDB peptide-MHC binding, purified MHC/direct/fluorescence; filed as Kd, often an IC50 or EC50 that approximates it; bounds were set here for any values at or beyond the usual limits of such assays
MEASUREMENT PARAMETERS: source organism: Marburg virus - Musoke, Kenya, 1980
Measured Kd values are reported for all entries that follow.

# RECORD SEQUENCE, MEASUREMENT TARGET, RESULT
measured = [
    ("AEILSGRVI", "HLA-B*15:17", "≥ 20 µM"),
]

Then this sequence:
For record QVGIFLICK the listed Kd is ≥ 20 µM

* * *

MEASUREMENT TARGET: HLA-A*02:01
PROTOCOL: IEDB peptide-MHC binding, purified MHC/direct/fluorescence; filed as Kd, often an IC50 or EC50 that approximates it; bounds were set here for any values at or beyond the usual limits of such assays
MEASUREMENT PARAMETERS: source organism: Stutzerimonas stutzeri
REPORTED METRIC: pKd
Lab note — pKd values are minus log10 of concentrations in M.

Query GRGQILLGK on HLA-A*02:01; pKd returned: 5.23

* * *

Kd values, listed per item
MEASUREMENT TARGET: HLA-A*02:06
PROTOCOL: IEDB peptide-MHC binding, purified MHC/competitive/radioactivity; filed as Kd, often an IC50 or EC50 that approximates it; bounds were set here for any values at or beyond the usual limits of such assays
MEASUREMENT PARAMETERS: source organism: SARS coronavirus Tor2
Answer with a number only, understood to be in nM.

# RECORD SEQUENCE, REPORTED METRIC, DISPLAY UNIT, READOUT NUMBER
records = [
    ("YQCGHYTHI", "Kd", "nM", 9.23),
    ("MVMCGGSLYV", "Kd", "nM", 13.2),
    ("TLLCVLAALV", "Kd", "nM", 64.6),
    ("FLNRFTTTL", "Kd", "nM", 58.1),
    ("MLIIFWFSL", "Kd", "nM", 490),
    ("FLCLFLLPSL", "Kd", "nM", 0.373),
]

Now take the following sequence into account.
Measured Kd, FLYIIKLVFL : 865

* * *

MEASUREMENT TARGET: HLA-B*46:01
PROTOCOL: IEDB peptide-MHC binding, purified MHC/direct/fluorescence; filed as Kd, often an IC50 or EC50 that approximates it; bounds were set here for any values at or beyond the usual limits of such assays
MEASUREMENT PARAMETERS: source organism: Vibrio vulnificus CMCP6
pKd: −log10 of the molar value.
REPORTED METRIC: pKd

EMSLADYLY tested on HLA-B*46:01 gave pKd: ≤ 4.70

* * *

MEASUREMENT TARGET: HLA-B*40:02
PROTOCOL: IEDB peptide-MHC binding, purified MHC/competitive/radioactivity; filed as Kd, often an IC50 or EC50 that approximates it; bounds were set here for any values at or beyond the usual limits of such assays
MEASUREMENT PARAMETERS: source organism: Mammarenavirus brazilense
REPORTED METRIC: pKd
Value format note: pKd is -log10 of concentration (mol/L); just state the number.

# RECORD SEQUENCE, pKd
data = [
    ("IDNQKLSYL", 5.19),
]

Then there is this sequence:
Please fill in: pKd reported for GDNEIEYGF = 5.89

* * *

MEASUREMENT TARGET: HLA-A*02:06
PROTOCOL: IEDB peptide-MHC binding, purified MHC/competitive/radioactivity; filed as Kd, often an IC50 or EC50 that approximates it; bounds were set here for any values at or beyond the usual limits of such assays
MEASUREMENT PARAMETERS: source organism: Homo sapiens
REPORTED METRIC: Kd

Some solved entries appear below for comparison.
# RECORD SEQUENCE, Kd
data = [
    ("ELEQTYHAKL", "≥ 71.2 µM"),
    ("SLPLPNFSSL", "0.641 µM"),
    ("QLKGQGKSRL", "≥ 42.2 µM"),
]

Entry LLHQSSDKFV ; Kd = 13.5 µM

* * *

MEASUREMENT TARGET: HLA-A*02:01
PROTOCOL: IEDB peptide-MHC binding, purified MHC/direct/fluorescence; filed as Kd, often an IC50 or EC50 that approximates it; bounds were set here for any values at or beyond the usual limits of such assays
MEASUREMENT PARAMETERS: source organism: Influenza A virus (A/chicken/Vietnam/5/2003(H5N1))
pKd: −log10 of the molar value.
REPORTED METRIC: pKd

Data point: QTYDWTLNR ; pKd = ≤ 4.70
